- Target of assay: UniProt:P34976
- Sequence (P34976 whole entry): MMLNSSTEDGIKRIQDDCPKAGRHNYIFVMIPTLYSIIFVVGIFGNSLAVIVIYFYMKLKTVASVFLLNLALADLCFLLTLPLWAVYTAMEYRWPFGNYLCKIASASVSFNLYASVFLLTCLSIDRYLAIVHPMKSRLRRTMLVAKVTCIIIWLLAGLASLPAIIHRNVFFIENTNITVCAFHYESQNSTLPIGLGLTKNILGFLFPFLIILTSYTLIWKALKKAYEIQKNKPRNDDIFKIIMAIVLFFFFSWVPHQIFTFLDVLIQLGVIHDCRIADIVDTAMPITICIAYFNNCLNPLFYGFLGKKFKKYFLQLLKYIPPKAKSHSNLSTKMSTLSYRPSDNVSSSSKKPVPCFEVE
- Test method notes: Displacement of [125I]Sar1-Ile8-AII (without BSA) from type 1 Angiotensin II receptor of rabbit aorta
- Format: tissue-based
Recorded endpoint: IC50 (nM)

- Molecule: "CCCCc1nc2ccc(NCc3ccccc3)cc2c(=O)n1Cc1ccc(-c2ccccc2-c2nn[nH]n2)cc1"
  Target of assay: "UniProt:P34976"
  IC50 [nM]: 1.1
- Molecule: "CCCCc1nc2ccc(NC(=O)NC(C)C)cc2c(=O)n1Cc1ccc(-c2ccccc2-c2nn[nH]n2)cc1"
  Target of assay: "UniProt:P34976"
  IC50 [nM]: 0.5
- Molecule: "CCCCc1nc2ccc(N(C)C(=O)OCC(C)C)cc2c(=O)n1Cc1ccc(-c2ccccc2-c2nnn[nH]2)cc1"
  Target of assay: "UniProt:P34976"
  IC50 [nM]: 1.6
- Molecule: "CCCCc1nc2ccc([S+](C)[O-])cc2c(=O)n1Cc1ccc(-c2ccccc2-c2nn[nH]n2)cc1 (stereo not drawn)"
  Target of assay: "UniProt:P34976"
  IC50 [nM]: 0.9
- Molecule: "CCCCc1nc2ccc(C(C)C)cc2c(=O)n1Cc1ccc(-c2ccccc2-c2nn[nH]n2)cc1"
  Target of assay: "UniProt:P34976"
  IC50 [nM]: 4
- Molecule: "CCCCC(=O)Nc1ccc2nc(CCCC)n(Cc3ccc(-c4ccccc4-c4nnn[nH]4)cc3)c(=O)c2c1"
  Target of assay: "UniProt:P34976"
  IC50 [nM]: 8.9

(a) CCCCc1nc2ccc(S(C)(=O)=O)cc2c(=O)n1Cc1ccc(-c2ccccc2-c2nn[nH]n2)cc1
(b) CCCCc1nc2ccc(C)cc2c(=O)n1Cc1ccc(-c2ccccc2-c2nnn[nH]2)cc1
From the recorded data, which exceeds the other in IC50: a or b ? // respond with label for picked entry
a

src = ChEMBL document CHEMBL1127007
